- Experimental Target: hCTR Y299A (Homo sapiens, UniProt P30988, Y299A)
- Construct: c-Myc (N); expressed in transfected cells
- Experimental Details: Homologous whole cell competition binding
- Condition Label: homologous competition of 125I-sCT(8-32), whole cells, mean ± S.E.M., SEM
Where no end group is shown, it is not given here.
Metric: pKi
Scale: pKi equals -log10([C]), with [C] in mol/L.

get_value(item= VLGKLSQELHKLQTYPRTNTGSGTP-NH2 [sCT(8-32)] , readout=pKi) returns 9.97

* * *

- Experimental Target: hCTR V358A (Homo sapiens, UniProt P30988, V358A)
- Construct: c-Myc (N); expressed in transfected cells
- Experimental Details: Homologous whole cell competition binding
- Condition Label: homologous competition of 125I-sCT(8-32), whole cells, mean ± S.E.M., SEM
Where no end group is shown, it is not given here.
Metric: pKi
# log scale: pKi equals minus log10 of the concentration in mol/L

Field pKi (hCTR V358A (Homo sapiens, UniProt P30988, V358A)), entry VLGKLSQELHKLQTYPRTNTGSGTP-NH2 [sCT(8-32)] : 9.81

* * *

- Experimental Target: hCTR F359A (Homo sapiens, UniProt P30988, F359A)
- Construct: expressed in transfected cells
- Sequence (P30988 25-474 F359A): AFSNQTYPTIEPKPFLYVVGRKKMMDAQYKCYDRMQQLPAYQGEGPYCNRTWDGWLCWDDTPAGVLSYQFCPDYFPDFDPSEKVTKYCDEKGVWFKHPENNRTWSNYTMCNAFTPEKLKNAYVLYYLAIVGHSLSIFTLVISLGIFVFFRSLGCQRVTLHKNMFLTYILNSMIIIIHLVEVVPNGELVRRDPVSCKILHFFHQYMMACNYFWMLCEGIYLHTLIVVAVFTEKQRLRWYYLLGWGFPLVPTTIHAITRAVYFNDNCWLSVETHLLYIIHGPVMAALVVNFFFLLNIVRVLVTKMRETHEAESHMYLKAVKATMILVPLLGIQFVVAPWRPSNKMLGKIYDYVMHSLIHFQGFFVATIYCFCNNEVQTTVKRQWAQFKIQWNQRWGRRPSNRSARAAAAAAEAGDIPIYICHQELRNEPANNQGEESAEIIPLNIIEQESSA
- Experimental Details: Homologous whole cell competition binding
- Condition Label: homologous competition of 125I-sCT(8-32), whole cells, mean ± S.E.M., SEM
Where no end group is shown, it is not given here.
Metric: pKi
A value of pKi is the negative decimal logarithm of a concentration given in moles per litre.

The value of pKi measured for the substance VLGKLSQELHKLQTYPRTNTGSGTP-NH2 [sCT(8-32)] turned out to be 9.66

* * *

- Experimental Target: hCTR P360A (Homo sapiens, UniProt P30988, P360A)
- Construct: expressed in transfected cells
- Sequence (P30988 25-474 P360A): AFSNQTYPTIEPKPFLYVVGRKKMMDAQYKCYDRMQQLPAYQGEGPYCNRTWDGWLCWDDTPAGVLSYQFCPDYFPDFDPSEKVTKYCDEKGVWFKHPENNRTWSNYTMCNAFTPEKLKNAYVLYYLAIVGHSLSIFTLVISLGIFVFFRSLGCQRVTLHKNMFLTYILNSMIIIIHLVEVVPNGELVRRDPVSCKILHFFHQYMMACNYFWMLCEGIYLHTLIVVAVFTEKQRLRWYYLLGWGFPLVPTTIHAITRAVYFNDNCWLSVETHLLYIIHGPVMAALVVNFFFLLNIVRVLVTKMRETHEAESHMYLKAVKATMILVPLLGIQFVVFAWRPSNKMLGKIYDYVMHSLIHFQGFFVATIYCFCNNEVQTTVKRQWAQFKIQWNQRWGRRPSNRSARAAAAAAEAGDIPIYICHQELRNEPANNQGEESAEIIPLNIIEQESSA
- Experimental Details: Homologous whole cell competition binding
- Condition Label: homologous competition of 125I-sCT(8-32), whole cells, mean ± S.E.M., SEM
Where no end group is shown, it is not given here.
Metric: pKi
Please treat pKi as minus the base-10 logarithm of the molar concentration.

Form field pKi for item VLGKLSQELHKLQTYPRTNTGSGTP-NH2 [sCT(8-32)] on hCTR P360A (Homo sapiens, UniProt P30988, P360A): 9.22

Where these numbers come from: paper PMC5908784
